Cited source: PubChem BioAssay (NCI)

Assay: NCI Yeast Anticancer Drug Screen. Data for the bub3 strain (AID 167)
Settings: S. cerevisiae bub3 mutant strain, at 5.0 µM (retest, dose inferred, filed as 0.5), hits give high values
About 79,000 compounds went through this panel and 15% of them were active in at least one assay; those are over-represented in the sample as a whole.
List of growth inhibition values.
Endpoint Name: growth inhibition (%)

INSERT INTO assay_data (compound, endpoint_name, unit_descriptor, result) VALUES
  ('C#CC(C)(C)OC(C)=O', 'growth inhibition', '%', 1),
  ('O=C1C(Cl)=C(N2CCN(c3ccccn3)CC2)C(=O)c2ncccc21', 'growth inhibition', '%', 50),
  ('CC(SC1=CC(=O)c2c(O)ccc(O)c2C1=O)C(=O)O (stereo not given)', 'growth inhibition', '%', -6),
  ('COc1ccc(NC(=O)C(Cc2ccccc2)NC(C)=O)cc1 (stereo not given)', 'growth inhibition', '%', -4),
  ('CCOC(=O)C1CC(C(=O)OCC)C(=O)C1=O (stereo not given)', 'growth inhibition', '%', 44),
  ('O=C(CC(c1ccccc1)N1CCCCC1)OC1c2ccccc2-c2ccccc21 (stereo not given)', 'growth inhibition', '%', -1),
  ('O=C(Oc1ccccc1)c1ccc2ccccc2c1O', 'growth inhibition', '%', 36),
  ('Cc1c2cc[n+](C)cc2c(COC2OC(CO)C(O)C2O)c2c3ccccc3n(C)c12 (stereo not given)', 'growth inhibition', '%', 12),
  ('O=c1[nH]c2c([N+](=O)[O-])cc(Cl)cc2nc1/C=C(\O)c1cccc2ccccc12', 'growth inhibition', '%', -3),
  ('N#CC(Nc1cccc(C(F)(F)F)c1)c1ccccc1C(F)(F)F (stereo not given)', 'growth inhibition', '%', 10),
  ('c1ccc2sc(SSN3CCOCC3)nc2c1', 'growth inhibition', '%', 64),
  ('Nc1n[nH]c(=O)c2cccnc12', 'growth inhibition', '%', 1),
  ('CCCCCCCCN(CCCCCCCC)CC(O)c1cc(OCC)nc2ccccc12 (stereo not given)', 'growth inhibition', '%', 9),
  ('Cc1c2c(c(C)c3c1OC(C)(C)CC3)OC(C)(C)CC2', 'growth inhibition', '%', -5),
  ('O[C@H]1c2cccn2-c2ccccc2S[C@H]1c1ccccc1', 'growth inhibition', '%', 10),
  ('C=C(C)COc1cc(NC(=S)OC(C)C)ccc1Cl', 'growth inhibition', '%', 20),
  ('COC(=O)C1CCN(Cc2ccccc2)CC1=O (stereo not given)', 'growth inhibition', '%', 81),
  ('N#CC1C(=O)NC(=O)C(C#N)C1c1ccc(Cl)c(Cl)c1 (stereo not given)', 'growth inhibition', '%', -8),
  ('COc1ccc(C(=O)c2cc(Br)ccc2O)cc1', 'growth inhibition', '%', 3),
  ('N=c1c2ccccc2cc2c3ccccc3ccn12', 'growth inhibition', '%', 57),
  ('CC(=O)Oc1c(C2CCCCC2)cc([N+](=O)[O-])cc1[N+](=O)[O-]', 'growth inhibition', '%', 85),
  ('O=C(O)c1ccc2c(O)c3ccccc3c(O)c2c1', 'growth inhibition', '%', 21),
  ('C=CC(=O)c1ccc2c(c1)OCCOCCOCCOCCOCCO2', 'growth inhibition', '%', -4),
  ('Nc1nnc(CCC(=O)Nc2ccccc2Cl)o1', 'growth inhibition', '%', 1),
  ('CCC(C)c1ccc(O)c(C(C)c2ccccc2)c1 (stereo not given)', 'growth inhibition', '%', 15);
